From: patent US20240279318A1

biological target: T1, AFP158/HLA-A*02:01 complex (human); experiment: SPR, fold vs AS170036 VL1VH1;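 further: crude scFv muteins immobilised on a sensor chip, peptide–MHC complex passed over at several concentrations, binding then buffer-driven dissociation, KD estimated from on- and off-rates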
T1 construct: flowed as analyte in SPR
Give log10(Affinity increase) for every item shown.
Reminder: these figures are log10 of reported Affinity increase, in fold before transformation.

Per the records, this binder ( AS170036 VL1VH1-56N108S (scFv, also called 21-AS170036 VL1VH1-56N108S) scFv: QSALTQPRSVSGSPGQSVTISCAGTSSDVGSENYVSWYQQHPGKAPKLMIYQVNKRASGVPDRFSGSKSGNTASLTISGLQAEDEADYYCASYRSSDHNIVFGGGTKLTVLGGGGSGGGGSGGGGSEVQLVESGGGLVQPGGSLRLSCAASGFTFSSYAMSWVRQAPGKGLEWVSTINSGTNSPYYADSVKGRFTISRDNSKNTLYLQMNSLRAEDTAVYYCAKNFFDGSWFLSPPAMDYWGQGTLVTVSSHHHHHH ) has log10(Affinity increase) equal to 0.85

Per the records, this binder ( AS170036 VL1VH1-98Q108S (scFv, also called 39-AS170036 VL1VH1-98Q108S) scFv: QSALTQPRSVSGSPGQSVTISCAGTSSDVGSENYVSWYQQHPGKAPKLMIYQVNKRASGVPDRFSGSKSGNTASLTISGLQAEDEADYYCASYRSSDQNIVFGGGTKLTVLGGGGSGGGGSGGGGSEVQLVESGGGLVQPGGSLRLSCAASGFTFSSYAMSWVRQAPGKGLEWVSTINSGTGSPYYADSVKGRFTISRDNSKNTLYLQMNSLRAEDTAVYYCAKNFFDGSWFLSPPAMDYWGQGTLVTVSSHHHHHH ) has log10(Affinity increase) equal to 0.93

Per the records, this binder ( AS170036 VL1VH1 (scFv, Crude scFv from E. coli TG1 supernatant; also called AS170036 VL1VH1 scFv) scFv: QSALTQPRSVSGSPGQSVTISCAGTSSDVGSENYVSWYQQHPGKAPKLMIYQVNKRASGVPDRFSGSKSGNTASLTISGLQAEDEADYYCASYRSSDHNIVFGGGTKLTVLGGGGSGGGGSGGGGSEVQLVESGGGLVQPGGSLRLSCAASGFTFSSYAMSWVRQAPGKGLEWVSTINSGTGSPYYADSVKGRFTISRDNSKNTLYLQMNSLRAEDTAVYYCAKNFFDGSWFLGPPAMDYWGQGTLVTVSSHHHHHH ) has log10(Affinity increase) equal to 0.00

Per the records, this binder ( AS170036 VL1VH1-56Y98Q (scFv, also called 03-AS170036 VL1VH1-56Y98Q) scFv: QSALTQPRSVSGSPGQSVTISCAGTSSDVGSENYVSWYQQHPGKAPKLMIYQVNKRASGVPDRFSGSKSGNTASLTISGLQAEDEADYYCASYRSSDQNIVFGGGTKLTVLGGGGSGGGGSGGGGSEVQLVESGGGLVQPGGSLRLSCAASGFTFSSYAMSWVRQAPGKGLEWVSTINSGTYSPYYADSVKGRFTISRDNSKNTLYLQMNSLRAEDTAVYYCAKNFFDGSWFLGPPAMDYWGQGTLVTVSSHHHHHH ) has log10(Affinity increase) equal to 1.41

Per the records, this binder ( AS170036 VL1VH1-98F108D (scFv, also called 32-AS170036 VL1VH1-98F108D) scFv: QSALTQPRSVSGSPGQSVTISCAGTSSDVGSENYVSWYQQHPGKAPKLMIYQVNKRASGVPDRFSGSKSGNTASLTISGLQAEDEADYYCASYRSSDFNIVFGGGTKLTVLGGGGSGGGGSGGGGSEVQLVESGGGLVQPGGSLRLSCAASGFTFSSYAMSWVRQAPGKGLEWVSTINSGTGSPYYADSVKGRFTISRDNSKNTLYLQMNSLRAEDTAVYYCAKNFFDGSWFLDPPAMDYWGQGTLVTVSSHHHHHH ) has log10(Affinity increase) equal to 1.25
